All figures here come from PubChem BioAssay (NCATS).

- Test system: CP305
- assay: qHTS profiling for inhibitors of Plasmodium falciparum proliferation (AID 504749); further: nearly all actives have a fitted effect of over 60% in size
- assay context: P. falciparum in erythrocytes, SYBR Green DNA, 72 h; series mostly up to 28.7 µM
Records with an inconclusive call do not appear. Calls of active or inactive are those of the source. The call rests on the fitted dose curve; in most records, active means well fitted inhibition curve with a large enough effect; inconclusive means small, poorly fitted or top-dose-only effect; inactive means flat fitted curve, though single readings scatter.
Labels: active, inactive

# compound, group
measured = [
    ("COc1ncnc(NS(=O)(=O)c2ccc(N)cc2)c1OC", "inactive"),
    ("COc1ccc2cc3[n+](cc2c1OC)CCc1cc2c(cc1-3)OCO2", "active"),
    ("N=C(N)c1ccc(OCCCCCOc2ccc(C(=N)N)cc2)cc1", "active"),
    ("O=C(O)c1cc(=O)[nH]c(=O)[nH]1", "inactive"),
    ("CN(Cc1cc(Br)cc(Br)c1N)C1CCCCC1", "inactive"),
    ("COc1cccc(N(C)C(=S)Oc2ccc3c(c2)CCCC3)n1", "inactive"),
    ("N[C@@H](C(=O)N[C@@H]1C(=O)N2C(C(=O)O)=C(Cl)CS[C@H]12)c1ccccc1", "inactive"),
    ("O=S(=O)(O)CCS", "inactive"),
    ("CC(C)Cn1cnc2c(N)nc3ccccc3c21", "inactive"),
    ("CC(C)(C#N)c1cc(Cn2cncn2)cc(C(C)(C)C#N)c1", "inactive"),
    ("CCOCC(O)COc1ccc(NC(=O)CC[S+](C)C)cc1 (configuration not stated)", "inactive"),
    ("COc1cc(NCc2ccc3nc(N)nc(N)c3c2C)cc(OC)c1OC", "active"),
    ("COc1ccc(-c2ccc3cc(C(=O)O)ccc3c2)cc1C12CC3CC(CC(C3)C1)C2", "inactive"),
    ("CNNCc1ccc(C(=O)NC(C)C)cc1", "inactive"),
    ("C[C@@H](NCCCc1cccc(C(F)(F)F)c1)c1cccc2ccccc12", "active"),
    ("CC(C)(C)C(=O)OCOP(=O)(COCCn1cnc2c(N)ncnc21)OCOC(=O)C(C)(C)C", "inactive"),
    ("CCCN[C@H]1CCc2nc(N)sc2C1", "inactive"),
    ("CCc1c2c(nc3ccc(OC(=O)N4CCC(N5CCCCC5)CC4)cc13)-c1cc3c(c(=O)n1C2)COC(=O)[C@]3(O)CC", "inactive"),
    ("NC(=O)N1c2ccccc2CC(=O)c2ccccc21", "inactive"),
    ("C#CCN[C@@H]1CCc2ccccc21", "inactive"),
    ("CCOC(=O)c1ccc(OC(=O)CCCCCN=C(N)N)cc1", "inactive"),
    ("Nc1nc(N)c2nc(CNc3ccc(C(=O)NC(CCC(=O)O)C(=O)O)cc3)cnc2n1 (configuration not stated)", "inactive"),
    ("Nc1ccc(S(=O)(=O)Nc2ccccn2)cc1", "inactive"),
    ("CN1CCCC(n2nc(Cc3ccc(Cl)cc3)c3ccccc3c2=O)CC1 (configuration not stated)", "inactive"),
    ("COc1cc2c(Nc3ccc(Br)cc3F)ncnc2cc1OCC1CCN(C)CC1", "active"),
    ("O=NN(CCCl)C(=O)NC1CCCCC1", "inactive"),
    ("CCCc1cc(C(N)=S)ccn1", "inactive"),
    ("S=P(N1CC1)(N1CC1)N1CC1", "inactive"),
    ("Cc1ncc([N+](=O)[O-])n1CCO", "inactive"),
    ("CC1=NN(c2ccccc2)C(=O)C1", "inactive"),
    ("Cn1nnc2c(C(N)=O)ncn2c1=O", "inactive"),
    ("CC(C)(Sc1cc(C(C)(C)C)c(O)c(C(C)(C)C)c1)Sc1cc(C(C)(C)C)c(O)c(C(C)(C)C)c1", "inactive"),
    ("NC(=O)c1cccnc1", "inactive"),
    ("CC(C)OC(=O)C(C(=O)OC(C)C)=C1SC=CS1", "inactive"),
    ("CCC(C)(C)c1ccc(CC(C)CN2C[C@@H](C)O[C@@H](C)C2)cc1 (some centres not stated)", "inactive"),
    ("NCCCC(O)(P(=O)(O)O)P(=O)(O)O", "inactive"),
    ("C[C@]12C=CC(=O)C=C1CC[C@@H]1[C@@H]2C(=O)C[C@@]2(C)[C@H]1CC[C@]2(O)C(=O)CO", "inactive"),
    ("CN1CCN(c2c(F)cc3c(=O)c(C(=O)O)cn4c3c2OCN4C)CC1", "inactive"),
    ("COc1cc([C@@H]2c3cc4c(cc3[C@H](O)[C@H]3COC(=O)[C@H]23)OCO4)cc(OC)c1OC", "active"),
    ("CC(C)NCC(O)c1ccc(NS(C)(=O)=O)cc1 (configuration not stated)", "inactive"),
    ("Cc1noc(NS(=O)(=O)c2ccc(N)cc2)c1C", "inactive"),
    ("COc1c(N2CCNC(C)C2)c(F)cc2c(=O)c(C(=O)O)cn(C3CC3)c12 (configuration not stated)", "inactive"),
    ("CC(=O)Oc1ccccc1C(=O)Nc1ncc([N+](=O)[O-])s1", "inactive"),
    ("OC(Cn1cncn1)(Cn1cncn1)c1ccc(F)cc1F", "inactive"),
    ("CCOc1cc(N)c(Cl)cc1C(=O)NCC1CN(Cc2ccc(F)cc2)CCO1 (configuration not stated)", "active"),
    ("CC[C@H](C)C(=O)O[C@H]1C[C@@H](C)C=C2C=C[C@H](C)[C@H](CC[C@@H]3C[C@@H](O)CC(=O)O3)[C@H]21", "inactive"),
    ("CNCC[C@H](Oc1cccc2ccccc12)c1cccs1", "inactive"),
]
